Target: CDK4/D1 (Homo sapiens, UniProt P11802)
Sequence (P11802 whole entry, species assumed): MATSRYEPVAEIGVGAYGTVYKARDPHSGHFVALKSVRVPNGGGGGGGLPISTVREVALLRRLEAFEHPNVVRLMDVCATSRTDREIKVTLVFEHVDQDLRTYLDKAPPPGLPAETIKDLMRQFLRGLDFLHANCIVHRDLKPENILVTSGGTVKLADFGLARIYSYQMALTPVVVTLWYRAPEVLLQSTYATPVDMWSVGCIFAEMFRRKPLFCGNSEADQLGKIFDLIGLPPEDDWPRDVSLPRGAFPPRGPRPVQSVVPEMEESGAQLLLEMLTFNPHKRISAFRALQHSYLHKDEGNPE
Sequence (P24385 whole entry partner, species assumed): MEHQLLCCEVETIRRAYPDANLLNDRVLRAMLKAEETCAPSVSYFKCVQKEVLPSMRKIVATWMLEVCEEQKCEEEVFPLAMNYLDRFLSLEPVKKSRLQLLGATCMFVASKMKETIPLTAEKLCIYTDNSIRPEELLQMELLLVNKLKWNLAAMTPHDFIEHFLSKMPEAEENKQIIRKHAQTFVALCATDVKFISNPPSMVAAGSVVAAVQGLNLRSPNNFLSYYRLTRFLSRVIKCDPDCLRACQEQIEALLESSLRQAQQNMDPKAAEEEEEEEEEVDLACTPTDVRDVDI
Test: ADP Glo kinase assay, CDK4/D1
Details: CDK4D1; apparent Ki calculated from Km (ATP) and IC50; read-out: CDK inhibition Ki
Rule: Ki below 400 nM gives yes. Equal to or above 400 nM gives no.

Ask: Does c1ccn2c(-c3ccnc(Nc4ccc(N5CCNCC5)cn4)n3)cnc2c1 [Cmpd 1] have Ki strictly under 400 nM?
Reply: yes

Ask: Lookup CC(=O)N1CCN(c2ccc(Nc3nccc(-c4cnc5ccc(C)cn45)n3)nc2)CC1 [Cmpd 13]
Reply: no

Ask: Lookup CN1CCN(c2ccc(Nc3nccc(-c4cnc5ccccn45)n3)nc2)CC1 [Cmpd 2]
Reply: yes

Ask: Lookup c1ccc(Nc2nccc(-c3cnc4ccccn34)n2)nc1 [Cmpd 7]
Reply: yes

Ask: Lookup CC(=O)N1CCN(c2ccc(Nc3nccc(-c4cnc5ccccn45)n3)nc2)CC1 [Cmpd 3]
Reply: no

Ask: Lookup CC(=O)N1CCN(c2ccc(Nc3nccc(-c4cnc5ccc(-c6cccs6)cn45)n3)nc2)CC1 [Cmpd 17]
Reply: yes
